Ref: PubChem BioAssay AID2060899

Test system: 565726-208-R1-J5-PDC complex spheroids, growth inhibition
TEST: Anticancer human tumor 565726-208-R1-J5-PDC patient-derived pancreatic adenocarcinoma cell line growth inhibition [RAS]
COND: curve of first compound; second compound 0.1 µM
Description: RAS pathway inhibitors in Combinations in Complex Spheroids A high-throughput screen of multi-cell type tumor spheroids was designed to identify active combinations of RAS pathway inhibitors and targeted small molecules. Complex spheroids include a stromal component modeled by human endothelial cells (HUVEC) and fibroblasts modeled by human mesenchymal stem cells (MSCs). […] Compounds. […] If the clinical Cmax for an agent had not been determined, the highest concentration tested was 10 microM. […]
pIC50: −log10 of the molar value.
READOUT_KIND: pIC50

O=C(c1ccc(F)c(F)c1Nc1ccc(I)cc1F)N1CC(O)([C@@H]2CCCCN2)C1 + C#Cc1c(F)ccc2cc(O)cc(-c3ncc4c(N5CC6CCC(C5)N6)nc(OCC56CCCN5CC(F)C6)nc4c3F)c12 ... < 6.00
C=CC(=O)N1CCN(c2nc(OCC3CCCN3C)nc3c(F)c(-c4nc(N)cc(C)c4C(F)(F)F)c(Cl)cc23)C(C)C1 (stereo not drawn) + C#Cc1c(F)ccc2cc(O)cc(-c3ncc4c(N5CC6CCC(C5)N6)nc(OCC56CCCN5CC(F)C6)nc4c3F)c12 ... < 6.00

Enquiry: Bench note: what pIC50 did CC(C)n1nc(-c2ccc3oc(N)nc3c2)c2c(N)ncnc21 + C#Cc1c(F)ccc2cc(O)cc(-c3ncc4c(N5CC6CCC(C5)N6)nc(OCC56CCCN5CC(F)C6)nc4c3F)c12 show?
Return: < 7.00

----------
Test system: 565726-208-R1-J5-PDC complex spheroids, growth inhibition
TEST: Anticancer human tumor 565726-208-R1-J5-PDC cell line growth inhibition [RAS];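 further: spheroids exposed to compounds for seven days before readout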;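 on viability, T/C: 100% = DMSO vehicle control viability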
COND: second compound 0.03 µM; first compound 0.0316 µM; stronger effect = lower value
Listed here are compounds together with their documented viability, T/C.
Express it in %; write the number only.

Enquiry: Look up viability, T/C: CCN1CCN(Cc2ccc(Nc3ncc(F)c(-c4cc(F)c5nc(C)n(C(C)C)c5c4)n3)nc2)CC1 + CCn1c(-c2cc(N3CCN(C)CC3)cnc2C(C)OC)c2c3cc(ccc31)-c1csc(n1)CC(NC(=O)C1CC1C)C(=O)N1CCCC(N1)C(=O)OCC(C)(C)C2
Return: 28.4

Enquiry: Follow-up entry: CCC(CC)c1cc(NC2CCC(N)C2)n2nccc2n1 (stereo not given) + CCn1c(-c2cccnc2C(C)OC)c2c3cc(ccc31)N1CCOC(CC(NC(=O)C(C(C)C)N(C)C(=O)C3(F)CCN(C(=O)C#CC(C)(C)N(C)C)CC3)C(=O)N3CCCC(N3)C(=O)OCC(C)(C)C2)C1
Return: 108

Enquiry: Now give it for C=CC(=O)N1CCN(c2nc(OCC3CCCN3C)nc3c(F)c(-c4nc(N)cc(C)c4C(F)(F)F)c(Cl)cc23)C(C)C1 (stereo not given) + CCn1c(-c2cc(N3CCN(C)CC3)cnc2C(C)OC)c2c3cc(ccc31)-c1csc(n1)CC(NC(=O)C1CC1C)C(=O)N1CCCC(N1)C(=O)OCC(C)(C)C2 too.
Return: 29.9

Enquiry: Can you check NC1c2ccccc2OC12CCN(c1cnc3c(N4CCCc5ncccc54)n[nH]c3n1)CC2 (stereo not given) + CCn1c(-c2cccnc2C(C)OC)c2c3cc(ccc31)N1CCOC(CC(NC(=O)C(C(C)C)N(C)C(=O)C3(F)CCN(C(=O)C#CC(C)(C)N(C)C)CC3)C(=O)N3CCCC(N3)C(=O)OCC(C)(C)C2)C1 next?
Return: 85.4

Enquiry: Same again, this time with Cc1nc(N2CCC3(CC2)COC(C)C3N)c(CO)nc1Sc1ccnc(N)c1Cl (stereo not given) + CCn1c(-c2cc(N3CCN(C)CC3)cnc2C(C)OC)c2c3cc(ccc31)-c1csc(n1)CC(NC(=O)C1CC1C)C(=O)N1CCCC(N1)C(=O)OCC(C)(C)C2
Return: 29.1

Enquiry: Proceed to C[C@@H](NC(=O)c1ncnc(N)c1Cl)c1ncc(C(=O)Nc2cc(C(F)(F)F)c(Cl)cn2)s1 + CCn1c(-c2cccnc2C(C)OC)c2c3cc(ccc31)N1CCOC(CC(NC(=O)C(C(C)C)N(C)C(=O)C3(F)CCN(C(=O)C#CC(C)(C)N(C)C)CC3)C(=O)N3CCCC(N3)C(=O)OCC(C)(C)C2)C1
Return: 102

Enquiry: And CC(Nc1ccc2c(c1)OCCn1cc(N3C(=O)OCC3C(F)F)nc1-2)C(N)=O (stereo not given) + CCn1c(-c2cc(N3CCN(C)CC3)cnc2C(C)OC)c2c3cc(ccc31)-c1csc(n1)CC(NC(=O)C1CC1C)C(=O)N1CCCC(N1)C(=O)OCC(C)(C)C2 ?
Return: 31.9

Enquiry: Moving on to CC1(O)CCCC1n1c(=O)c(C(F)F)cc2cnc(NC3CCN(S(C)(=O)=O)CC3)nc21 (stereo not given) + CCn1c(-c2cccnc2C(C)OC)c2c3cc(ccc31)N1CCOC(CC(NC(=O)C(C(C)C)N(C)C(=O)C3(F)CCN(C(=O)C#CC(C)(C)N(C)C)CC3)C(=O)N3CCCC(N3)C(=O)OCC(C)(C)C2)C1
Return: 79.3
